// provenance: patent US20230416248A1

# target: BRG-1 (Homo sapiens)
# Construct: made in house; host or cells: High Five insect cells
# Sequence (P51532 whole entry): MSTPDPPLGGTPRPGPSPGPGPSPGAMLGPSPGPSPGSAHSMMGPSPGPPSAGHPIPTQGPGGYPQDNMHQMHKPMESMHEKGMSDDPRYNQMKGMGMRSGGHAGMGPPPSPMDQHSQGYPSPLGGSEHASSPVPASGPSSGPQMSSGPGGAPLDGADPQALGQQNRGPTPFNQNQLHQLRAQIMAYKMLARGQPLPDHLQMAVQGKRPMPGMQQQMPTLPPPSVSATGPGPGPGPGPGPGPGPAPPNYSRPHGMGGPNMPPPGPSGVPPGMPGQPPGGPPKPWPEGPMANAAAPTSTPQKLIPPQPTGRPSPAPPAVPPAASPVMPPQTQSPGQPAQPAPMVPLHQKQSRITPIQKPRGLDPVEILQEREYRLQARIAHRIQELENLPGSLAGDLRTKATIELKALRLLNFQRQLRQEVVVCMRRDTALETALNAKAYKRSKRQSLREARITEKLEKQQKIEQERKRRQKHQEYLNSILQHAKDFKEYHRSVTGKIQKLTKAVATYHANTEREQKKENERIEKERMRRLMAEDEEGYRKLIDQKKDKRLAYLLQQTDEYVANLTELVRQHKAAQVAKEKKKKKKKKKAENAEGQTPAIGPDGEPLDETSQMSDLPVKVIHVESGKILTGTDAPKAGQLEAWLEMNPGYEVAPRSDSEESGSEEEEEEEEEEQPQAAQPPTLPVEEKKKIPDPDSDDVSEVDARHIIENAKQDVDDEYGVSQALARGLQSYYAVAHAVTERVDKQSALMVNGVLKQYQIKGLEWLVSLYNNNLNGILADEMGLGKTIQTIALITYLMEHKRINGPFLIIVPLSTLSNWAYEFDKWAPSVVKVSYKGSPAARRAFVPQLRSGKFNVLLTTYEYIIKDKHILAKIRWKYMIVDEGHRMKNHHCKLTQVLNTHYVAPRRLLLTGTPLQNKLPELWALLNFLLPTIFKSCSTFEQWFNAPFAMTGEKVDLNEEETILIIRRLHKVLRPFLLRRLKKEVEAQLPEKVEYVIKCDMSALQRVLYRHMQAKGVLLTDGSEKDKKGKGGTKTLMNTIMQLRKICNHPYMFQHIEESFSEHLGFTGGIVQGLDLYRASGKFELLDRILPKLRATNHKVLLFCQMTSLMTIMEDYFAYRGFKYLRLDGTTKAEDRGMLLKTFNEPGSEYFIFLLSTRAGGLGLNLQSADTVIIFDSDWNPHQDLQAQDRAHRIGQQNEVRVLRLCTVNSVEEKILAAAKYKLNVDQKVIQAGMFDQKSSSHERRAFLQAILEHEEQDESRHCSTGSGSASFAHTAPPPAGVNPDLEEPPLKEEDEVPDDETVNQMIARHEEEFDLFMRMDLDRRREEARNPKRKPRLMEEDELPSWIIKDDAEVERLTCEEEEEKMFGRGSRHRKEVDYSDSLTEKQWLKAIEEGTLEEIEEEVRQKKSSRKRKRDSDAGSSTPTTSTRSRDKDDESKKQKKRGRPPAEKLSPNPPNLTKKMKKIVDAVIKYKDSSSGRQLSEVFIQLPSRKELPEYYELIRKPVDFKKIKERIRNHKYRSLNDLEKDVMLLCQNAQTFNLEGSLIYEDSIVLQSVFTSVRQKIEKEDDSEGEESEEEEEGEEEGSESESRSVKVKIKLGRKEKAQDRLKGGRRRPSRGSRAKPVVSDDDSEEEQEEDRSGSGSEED
# protocolNotes: ATPase catalytic activity of BRG-1, ADP-Glo in vitro biochemical assay
# settings: ATPase catalytic activity, ADP-Glo; 30 nM BRG-1, 400 μM ATP; read-out: BRG1 IC50
# Method: The ATPase catalytic activity of BRM or BRG-1 was measured by an in vitro biochemical assay using ADP-Glo™ (Promega, V9102). The ADP-Glo™ kinase assay is performed in two steps once the reaction is complete. The first step is to deplete any unconsumed ATP in the reaction. The second step is to convert the reaction product ADP to ATP, which will be utilized by the luciferase to generate luminesce and be detected by a luminescence reader, such as Envision. […]
pIC50: −log10 of the molar value.
measure: pIC50

1. O=C(NCc1cc2nc(N3CCCc4cc(F)cnc43)ccc2cn1)c1ccc2c(c1)S(=O)(=O)CCOC2 [Compound 591]
2. C[C@@H]1CN(c2cccc(-c3ccc4cnc(CNC(=O)c5cc(F)c6c(c5)S(=O)(=O)CCO[C@@H]6C)cc4n3)n2)C[C@H](C)O1 [Compound 516]
3. C[C@@H]1CCS(=O)(=O)c2cc(C(=O)NCc3cc4nc(-c5cccc(N6C[C@@H](C)O[C@@H](C)C6)n5)ccc4cn3)ccc2O1 [Compound 416]
Query string: In this exercise, place the 3 compounds in ascending sequence of their recorded pIC50. Output the labels ranked as instructed.
Result string: 3, 1, 2
